# MEASUREMENT_DESCRIPTION: chemical genetic growth profiling, strain panel (AID 1159580);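 further: tested at 20 µM; growth read once vehicle control cultures reached saturation at 30 °C; 1 = growth at the plate median or of vehicle wells; lower values mean less growth of the strain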
# TEST_CONDITIONS: S. cerevisiae deletion strains, growth OD, locus YOR265W, strain rbl2, hits give low values
Among all 5,500 compounds or so, about 2,000 (36%) were called active. About 18% were inconclusive and are not listed. The list shows a part of the results.
REPORTED_METRIC: normalized growth

The following compounds each have a reported value; give each one's normalized growth.
1. CC1=CC(=O)C(C(C)C)=CC1=O
2. COc1cc2c(cc1OC)-c1c(oc3cc(O)cc(O)c3c1=O)CO2
3. Oc1ccc([C@H]2Oc3cc(O)cc(O)c3C[C@H]2O)cc1
4. C=CCSSSCC=C
5. CC12CCC(=O)C=C1CCc1ccccc12 (centres undefined)
6. C[C@H]1[C@H](C)CC[C@]2(C(=O)O)CC[C@]3(C)C(=CCC4[C@@]5(C)C[C@@H](O)[C@H](O)[C@@](C)(CO)C5CC[C@]43C)[C@H]12 (some centres undefined)
7. CC(=O)N1CCN(c2ccc(OCC3CO[C@](Cn4ccnc4)(c4ccc(Cl)cc4Cl)O3)cc2)CC1 (some centres undefined)
8. Cc1c(C(N)=O)cc([N+](=O)[O-])cc1[N+](=O)[O-]

[reply]
1. 0.997 (inactive)
2. 1.01 (inactive)
3. 0.981 (inactive)
4. 0.984 (inactive)
5. 0.984 (inactive)
6. 1.02 (inactive)
7. 0.0927 (active)
8. 1.01 (inactive)

----------
# MEASUREMENT_DESCRIPTION: chemical genetic growth profiling, strain panel (AID 1159580)
# TEST_CONDITIONS: S. cerevisiae deletion strains, growth OD, locus YIR030C, strain dcg1
In all, about 5,500 compounds went through this assay and about 2,000 (36%) were called active. Another 18% or so got no clear call; they are omitted. Cut-off read from the data, not from the text of the source: active = normalized growth mostly below about 0.91 (no sharp cut-off); inconclusive = no clear call, values can overlap the other calls; inactive = mostly above about 0.92. Some of the results follow.
Form entry, call: pick from active, inactive

1. COc1cc(C(=O)N2CCOCC2)cc(OC)c1OC active
2. COc1cc(C(=O)O)cc(OC)c1OC inactive
3. COc1cc(O)c2c(=O)cc(-c3ccc(OC)c(-c4c(O)cc(O)c5c(=O)cc(-c6ccc(O)cc6)oc45)c3)oc2c1 inactive

Then there is this compound:
[ask] Outcome? "C[C@]12CCC(=O)C=C1CCc1ccc(O)cc12"
[reply] inactive

----------
# MEASUREMENT_DESCRIPTION: chemical genetic growth profiling, strain panel (AID 1159580)
# TEST_CONDITIONS: S. cerevisiae deletion strains, growth OD, locus YDR069C, strain doa4, hits give low values
In all, about 5,500 compounds went through this assay and about 2,000 (36%) were called active. Roughly 18% stayed inconclusive and do not appear here. This is one part of the list.
Field: normalized growth. Provide a value for each of the molecules that follow.
Give bare numbers.

Take a look at these entries with their results.
MOLECULE	REPORTED_METRIC	VALUE
Oc1ccc([C@H]2Oc3cc(O)cc(O)c3C[C@H]2O)cc1	normalized growth	0.952
COc1cc(C(=O)N2CCOCC2)cc(OC)c1OC	normalized growth	0.992
C[C@@H]1CC[C@@]23CCC4(C)[C@@](C=CC5[C@@]6(C)CC[C@H](O)C(C)(C)C6CC[C@]54C)(OC2=O)C3[C@H]1C (some centres not stated)	normalized growth	0.985
O=c1c2cc(O)c(O)cc2oc2cc(O)c(C3O[C@H](CO)[C@H](O)[C@@H](O)[C@H]3O)c(O)c12 (some centres not stated)	normalized growth	1.03
CCC(=O)OCC(=O)C1(OC(=O)CC)C(C)CC2C3C(Cl)CC4=CC(=O)C=CC4(C)C3C(O)CC21C (configuration not stated)	normalized growth	1.02

Go through the items and report each one's normalized growth.
1. NCCCC(O)(P(=O)(O)O)P(=O)(O)O
2. CC1(C)C(=O)CC[C@@]2(C)C1C[C@@H](O)[C@@]1(C)C3=CC(=O)O[C@@H](c4ccoc4)[C@]3(C)CCC21 (some centres not stated)

[reply]
[1, 1.01]

----------
# MEASUREMENT_DESCRIPTION: chemical genetic growth profiling, strain panel (AID 1159580);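 further: tested at 20 µM; growth read once vehicle control cultures reached saturation at 30 °C; 1 = growth at the plate median or of vehicle wells; lower values mean less growth of the strain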
# TEST_CONDITIONS: S. cerevisiae deletion strains, growth OD, locus YNL250W, strain rad50
The whole screen tested about 5,500 compounds, of which about 2,000 (36%) were called active. Inconclusive results (about 18%) are left out. Rule as the data show it: active = normalized growth mostly below about 0.91 (no sharp cut-off); inconclusive = no clear call, values can overlap the other calls; inactive = mostly above about 0.92. This is one part of the list.
Please state which outcome applies, choosing from active, inactive

MOLECULE	CAT
CC1(C)C(O)CC(=O)C2(C)C1CC(O)C1(C)C2CCC2(C)C(c3ccoc3)OC(=O)C3OC321 (stereo unspecified)	inactive
COc1ccc(-c2cc(=O)c3c(O)cc(O)c(-c4cc(-c5cc(=O)c6c(O)cc(O)cc6o5)ccc4OC)c3o2)cc1	inactive
CC1(C)S[C@@H]2C(N3C(=O)[C@@H](c4ccccc4)NC3(C)C)C(=O)N2[C@H]1C(=O)O (stereo partly specified)	inactive
CC[C@@]1(O)C(=O)OCc2c1cc1n(c2=O)Cc2cc3cc(O)ccc3nc2-1	active
CC[C@@]1(O)C(=O)OCc2c1cc1n(c2=O)Cc2cc3ccccc3nc2-1	active
COc1ccccc1N1CCN(CCCNc2cc(=O)n(C)c(=O)n2C)CC1	inactive

[ask] Answer briefly: the call reported for CC(=O)O[C@@H]1CC2C(C)(C)CCC[C@]2(C)C2CC[C@]3(C)C(=CC(=O)O[C@H]3c3ccoc3)[C@@]21C (stereo partly specified) in this assay.
[reply] inactive

[ask] And the next one, CC(=O)N1CCCC1C(=O)O (stereo unspecified) ?
[reply] inactive

[ask] Continue with CCC(=O)OCC(=O)[C@@]1(OC(=O)CC)[C@@H](C)CC2C3CCC4=CC(=O)C=C[C@]4(C)C3(F)[C@@H](O)C[C@@]21C (stereo partly specified)
[reply] inactive

[ask] C[C@@H](CO)NC(=O)C1C=C2c3cccc4[nH]cc(c34)C[C@H]2N(C)C1 (stereo partly specified) , same question.
[reply] inactive

[ask] Next up: CCC(=O)OCC(=O)C1(OC(=O)CC)C(C)CC2C3CCC4=CC(=O)C=CC4(C)C3(Cl)C(O)CC21C (stereo unspecified)
[reply] inactive

----------
# MEASUREMENT_DESCRIPTION: chemical genetic growth profiling, strain panel (AID 1159580);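 further: tested at 20 µM; growth read once vehicle control cultures reached saturation at 30 °C; 1 = growth at the plate median or of vehicle wells; lower values mean less growth of the strain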
# TEST_CONDITIONS: S. cerevisiae deletion strains, growth OD, locus YDR162C, strain NBP2, hits give low values
Out of some 5,500 compounds screened, about 2,000 (36%) were called active. Another 18% or so got no clear call; they are omitted. This is one part of the list.
Give normalized growth for every item shown.
One number for each entry.

MOLECULE	normalized growth
NS(=O)(=O)c1cc2c(cc1C(F)(F)F)NC(Cc1ccccc1)NS2(=O)=O (stereo not given)	1.01
CC(=O)[C@@]1(O)CCC2C3C=C(Cl)C4=CC(=O)[C@@H]5CC5[C@]4(C)C3CC[C@@]21C (stereo not given in full)	1

// for each molecule in input: emit normalized growth
1. CC12CCC3C(CCC4(O)CC(O)CCC34/C=N/NC(N)=O)C1(O)CCC2C1=CC(=O)OC1 (stereo not given)
2. CSCCC(N)C(=O)NC(CC(C)C)C(=O)NC(Cc1ccccc1)C(=O)O (stereo not given)
3. NCCCN

[reply]
1.02
1.02
1.01

----------
Exercise: state measured normalized growth for each of the compounds provided.
# MEASUREMENT_DESCRIPTION: chemical genetic growth profiling, strain panel (AID 1159580);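 further: tested at 20 µM; growth read once vehicle control cultures reached saturation at 30 °C; 1 = growth at the plate median or of vehicle wells; lower values mean less growth of the strain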
# TEST_CONDITIONS: S. cerevisiae deletion strains, growth OD, locus YGL173C, strain kem1, hits give low values
About 2,000 (36%) of roughly 5,500 compounds were called active. Inconclusive results (about 18%) are left out. The list shows a part of the results.
Numbers only.

Batch of 3 compounds: report normalized growth for each.
1. Cc1ncc(CO)c(CO)c1O
2. NC[C@H]1O[C@H](O[C@H]2[C@H](O)[C@@H](O[C@H]3O[C@H](CO)[C@@H](O)[C@H](N)[C@H]3O)[C@H](N)C[C@@H]2N)[C@H](N)[C@@H](O)[C@@H]1O
3. NS(=O)(=O)c1cc2c(cc1C(F)(F)F)NC(Cc1ccccc1)NS2(=O)=O (stereo not drawn)

[reply]
1: 1.04; 2: 0.99; 3: 0.981

I need normalized growth for every entry listed below, if you could help.
1. CC1(C)C(O)CC(=O)C2(C)C1CC(O)C1(C)C2CCC2(C)C(c3ccoc3)OC(=O)C3OC321 (stereo not drawn)
2. COc1cccc2c1CCC1=CC(=O)CC[C@@]12C
3. CC(C)c1cccc(C(C)C)c1O
4. CC[C@@]1(O)C(=O)OCc2c1cc1n(c2=O)Cc2cc3cc(O)ccc3nc2-1
5. C[C@@H](CO)NC(=O)C1C=C2c3cccc4[nH]cc(c34)C[C@H]2N(C)C1 (stereo partly drawn)
6. CO[C@@H]1[C@@H](OC(N)=O)[C@@H](O)[C@H](Oc2ccc3c(O)c(NC(=O)c4ccc(O)c(CC=C(C)C)c4)c(=O)oc3c2C)OC1(C)C
7. CN[C@H]1CC[C@@H](c2ccc(Cl)c(Cl)c2)c2ccccc21

[reply]
1: 0.994; 2: 0.993; 3: 0.98; 4: 0.97; 5: 1.04; 6: 1.05; 7: 0.799

Provide the reported normalized growth of each entry below, same order.
1. O=c1c(-c2ccc(O)cc2)coc2c(C3O[C@H](CO)[C@@H](O)[C@H](O)[C@H]3O)c(O)ccc12 (stereo partly drawn)
2. CCC(=O)OCC(=O)[C@@]1(OC(=O)CC)[C@@H](C)CC2C3CCC4=CC(=O)C=C[C@]4(C)C3(F)[C@@H](O)C[C@@]21C (stereo partly drawn)
3. CC(C)(C)NCC(O)COc1cccc2c1CCCC2=O (stereo not drawn)
4. O=c1c2cc(O)c(O)cc2oc2cc(O)c(C3O[C@H](CO)[C@H](O)[C@@H](O)[C@H]3O)c(O)c12 (stereo partly drawn)
5. COC(=O)[C@H]1[C@H]2C[C@H]3c4[nH]c5cc(OC)ccc5c4CCN3C[C@H]2C[C@@H](OC(=O)c2cc(OC)c(OC)c(OC)c2)[C@@H]1OC
6. O=C(CCCN1CCC(O)(c2ccc(Cl)cc2)CC1)c1ccc(F)cc1
7. CC(C)c1cccc(O)c(=O)c1

[reply]
1. 0.977
2. 1
3. 0.977
4. 1.03
5. 1.02
6. 0.951
7. 0.0718

Please look at the items below and tell me normalized growth for each one, in order.
1. O=C(O)CCc1nc(-c2ccccc2)c(-c2ccccc2)o1
2. CCC(=O)O[C@]1(C(=O)CCl)[C@@H](C)CC2C3CCC4=CC(=O)C=C[C@]4(C)[C@@]3(F)[C@@H](O)C[C@@]21C (stereo partly drawn)
3. C/C=C/CC(C)C(O)C1C(=O)NC(CC)C(=O)N(C)CC(=O)N(C)C(CC(C)C)C(=O)NC(C(C)C)C(=O)N(C)C(CC(C)C)C(=O)NC(C)C(=O)NC(C)C(=O)N(C)C(CC(C)C)C(=O)N(C)C(CC(C)C)C(=O)N(C)C(C(C)C)C(=O)N1C (stereo not drawn)
4. CC[C@@]1(O)C(=O)OCc2c1cc1n(c2=O)Cc2cc3ccccc3nc2-1
5. Nc1ccc(S(=O)(=O)Nc2ncccn2)cc1

[reply]
0.958
1.05
1.02
0.882
0.994

For every item below, please supply its normalized growth.
1. O=C(CCCN1CCN(c2ccccn2)CC1)c1ccc(F)cc1
2. Cc1c(OCC(F)(F)F)ccnc1CS(=O)c1nc2ccccc2[nH]1 (stereo not drawn)
3. CCCc1nc(C)c2c(=O)[nH]c(-c3cc(S(=O)(=O)N4CCN(CC)CC4)ccc3OCC)nn12
4. CN(C)C(=O)C(CCN1CCC(O)(c2ccc(Cl)cc2)CC1)(c1ccccc1)c1ccccc1
5. COC(=O)C(N)CS (stereo not drawn)
6. Nc1nc(/C(=C/CC(=O)O)C(=O)N[C@@H]2C(=O)N3C(C(=O)O)=CCS[C@H]23)cs1
7. CC1(C)S[C@@H]2[C@H](NC(=O)C(C(=O)O)c3ccccc3)C(=O)N2[C@H]1C(=O)O (stereo partly drawn)

[reply]
[0.927, 1.04, 0.949, 0.981, 0.938, 1.02, 0.96]

Could you report normalized growth for every entry in the following list?
1. COP(N)(=O)SC (stereo not drawn)
2. CCCc1nn(C)c2c(=O)[nH]c(-c3cc(S(=O)(=O)N4CCN(C)CC4)ccc3OCC)nc12
3. C[C@@H]1CC[C@@]23CCC4(C)[C@@](C=CC5[C@@]6(C)CCC(=O)C(C)(C)C6CC[C@]54C)(OC2=O)C3[C@H]1C (stereo partly drawn)
4. N#Cc1c(Cl)cccc1Cl

[reply]
1.02
0.983
1.01
0.99

Entry source: PubChem BioAssay AID1159580
